# ASSAY_OVERVIEW: Cytotoxicity against human MT4 cells after 5 days by MTT assay
# Assay type: cell-based
Here, each record is paired with measured CC50 at 120 h data.

COMPOUND | CC50 at 120 h
Cc1cc(C)cc(Oc2cc(Nc3ccc(C#N)cc3)[nH]c(=O)c2I)c1 | 24 µM
CC(C)Nc1cccnc1N1CCN(C(=O)c2cc3cc(NS(C)(=O)=O)ccc3[nH]2)CC1 [DELAVIRDINE] | > 36 µM
Cc1cc(C)cc(Oc2cc(Nc3ccc(C#N)cc3)[nH]c(=O)c2Cl)c1 | 21 µM
Cc1cccc(C)c1Oc1cc(Nc2ccc(C#N)cc2)[nH]c(=O)c1Cl | 29 µM

Consider the additional compound presented here.
What the record says about `COc1cc(Oc2c(C)cc(C)cc2C)cc(Nc2ccc(C)cc2)n1` : CC50 at 120 h is 35 µM
